Could you please report measured KB cells Cytotoxicity % inhibition à [10^−5] for the items listed next?
test system: KB cells; experiment: Cytotoxicity on KB cells; type: cell-based; details: KB cells, [10^−5], first value
One number for each entry, in %.

INSERT INTO measurements (compound, measurement_target, recorded_result) VALUES
  ('Cc1cccc(-c2ccc(-c3ccccn3)nn2)n1 [Compound 44]', 'KB cells', 11);

Batch of 4 compounds: report KB cells Cytotoxicity % inhibition à [10^−5] for each.
1. C=C(OCC)c1ccc(-c2ccc(C(=C)OCC)nn2)nn1 [Compound 24]
2. CCCCc1cc(-c2ccccn2)[nH]c1-c1ccccn1 [Compound 68]
3. O=C(O)c1cccc(-c2ccc(-c3ccccn3)nn2)n1 [Compound 45]
4. O=C(O)c1cccc(-c2ccc(-c3cccc(C(=O)O)n3)nn2)n1 [Compound 48]

1. 96
2. 43
3. 9
4. 21

Batch of 3 compounds: report KB cells Cytotoxicity % inhibition à [10^−5] for each.
1. c1ccc(-c2ccc(-c3ccc(-c4ccccn4)nn3)nn2)nc1 [Compound 19, 6,6′-bis(pyridin-2-yl)-3,3′-bipyridazine]
2. Cc1cccc(-c2ccc(-c3ccc(-c4cccc(C)n4)nn3)nn2)n1 [Compound 2]
3. S=c1ccc(-c2ccccn2)n[nH]1 [Compound 10, 6-(pyridin-2-yl)-2H-pyridazin-3-thione]

[16, 23, 84]
